target: pre-pro-insulin glargine
assay-readout: Yield

protein="trypsin variant SEQ ID NO: 100 (protein) IVGGYTCAANSIPYQVSLNSGSHRCGGSLINSQWVVSAAHCYKPRIQVRLGEHNIDVLEGNEQFINAAKIITHPNFNPNTLDNDIMLIKLSSPATLNSHVATVSLPTSCAAAGTECLISGWGNTCSSGSSMPSLLQCLKAPVLSDSSCKSSYPGQITGNMICVGFLEGGADACQGDSGGPVVCNGQLQGIVSSGYGCAQKNKPGVYTKVCNYVNWIQQTIAAN" assay_readout=Yield assay_result="> 80%"
protein="trypsin variant SEQ ID NO: 41 (protein) IVGGYTCAANSIPYQVSLNSGSHRCGGSLINSQWVVSAAHCYKSRIQVRLGEHNIDVLEGNEQFINAAKIITHPNFNGNTLDNDIMLIKLSSPATLNSRVATVSLPRSCAAAGTECLISGWGNTKSSGSSHPSLLQCLKAPVLSDSSCKSSYPGQITGNMICVGFLEGGKDACQGDSGGPVVCNGQLQGIVSSGYGCAQKNKPGVYTKVCNYVNWIQQTIAAN" assay_readout=Yield assay_result="> 90%"

Reference source for all entries: patent US20230303994
